Reference for the values: ChEMBL document CHEMBL1201862

Measured GI50, listed per entry.
# Tested on: IGROV-1
# assay name: NCI tumour cell line growth inhibition, 48 h
Active and inactive are the calls of the source. Cut-off read from the data, not from the text of the source: active = GI50 up to about 1.1 µM and inactive = higher.

Answered examples (2):
>>> observed_result("Cc1ccc(N2C(=O)/C(=C3\\SC(C(N)=O)=C(N)N3c3ccccc3)SC2=S)cc1")
"> 100 µM (inactive)"
>>> observed_result("Nc1nc2cc(CNc3ccc(C(=O)NC(CCC(=O)O)C(=O)O)cc3)ccc2nc1-c1ccccc1 (stereo unspecified)")
"> 10 µM (inactive)"

Notebook: `O=[N+]([O-])c1cccc(/N=N/c2c(O)ccc3ccccc23)c1` , GI50 read as 94.8 µM (inactive)

Notebook: `Cc1c2cc[n+](C)cc2c(C)c2c1[nH]c1ccc(OC(C)C)cc12` , GI50 read as 2.55 µM (inactive)

Notebook: CCN1C/C(=C\c2cc(OC)c(OC)c(OC)c2)C2=NN(c3ccccc3)C(c3cc(OC)c(OC)c(OC)c3)C2C1 (stereo unspecified) , GI50 read as 6.43 µM (inactive)

Notebook: `Cc1cc(=O)oc2c(C)c(O)ccc12` , GI50 read as > 100 µM (inactive)

Notebook: `Cc1cc2c3c(coc3c1-c1c(C)cc3c4c(coc14)C(=O)C(O)=C3C(C)C)C(=O)C(O)=C2C(C)C` , GI50 read as 3.99 µM (inactive)

Notebook: `COc1ccc(-n2c(C)nc3ccc(NC(=S)Nc4ccccc4)cc3c2=O)cc1` , GI50 read as > 100 µM (inactive)

Notebook: CC(=O)OCC1CCC(=C2C(=O)OC(C)(C)OC2=O)N1 (stereo unspecified) , GI50 read as > 100 µM (inactive)

Notebook: Cc1c(O)c(OC2OC(CO)C(O)C(O)C2O)cc2c1CC[C@@H]1C2(C)C(=O)C[C@]2(C)[C@@H]([C@@](C)(O)C(O)CCC(C)(C)O)[C@H](O)C[C@@]12C (stereo partly specified) , GI50 read as > 100 µM (inactive)

Notebook: `CC(C)C(=O)/C=C/c1ccc(Cl)cc1` , GI50 read as 21.6 µM (inactive)

Notebook: `Cc1cc(O)nc(CNC(=O)Cc2ccccc2)n1` , GI50 read as > 100 µM (inactive)

Notebook: CCOC1CC(C)N(C(=O)c2ccccc2)O1 (stereo unspecified) , GI50 read as > 100 µM (inactive)

Notebook: `c1nc(NCCc2c[nH]cn2)c2nc[nH]c2n1` , GI50 read as > 100 µM (inactive)

Notebook: NC(=O)C(Nc1ccc(Cl)cc1)c1cc2cc(Br)ccc2nc1Cl (stereo unspecified) , GI50 read as 17.6 µM (inactive)

Notebook: C=C(C)C1Cc2cc(C(C)=O)ccc2O1 (stereo unspecified) , GI50 read as > 100 µM (inactive)

Notebook: `O=C1NC(=S)NC(=O)C1C(c1ccc([N+](=O)[O-])cc1)C1C(=O)NC(=S)NC1=O.c1ccncc1` , GI50 read as > 100 µM (inactive)

Notebook: CN1CCC(C(O)(c2ccccc2)c2ccc(Br)cc2)CC1 (stereo unspecified) , GI50 read as 25.9 µM (inactive)

Notebook: `CN1CC=C(C#CC(C)(C)O)CC1` , GI50 read as > 37.5 µM (inactive)

Notebook: `COc1cc(O)c2c(=O)cc(C3(O)C=CC(=O)C=C3)oc2c1` , GI50 read as < 0.01 µM (active)

Notebook: CC1C2CC(CC2O)C1(C)C (stereo unspecified) , GI50 read as > 100 µM (inactive)

Notebook: `CCOC(=O)Cc1c(C)c2cc(C(=O)c3ccccc3)c(O)cc2oc1=O` , GI50 read as 39.6 µM (inactive)

Notebook: CC(C)(C)C1CCC(=O)C(C(O)CC2CC(=O)N(c3ccccc3)C(=O)C2)C1 (stereo unspecified) , GI50 read as > 100 µM (inactive)

Notebook: `O=C(N/N=C/c1cccc(O)c1O)N/N=C/c1cccc(O)c1O` , GI50 read as 48.1 µM (inactive)

Notebook: `Cn1c(C(C)(C)OC(=O)Oc2ccccc2)cnc1[N+](=O)[O-]` , GI50 read as 55.6 µM (inactive)

Notebook: `Cn1c(=O)oc2nc(-c3ccccc3)cc(C(F)(F)F)c21` , GI50 read as > 100 µM (inactive)

Notebook: `COc1ccc(C(c2c[nH]c3ccc(Br)cc23)c2c[nH]c3ccc(Br)cc23)cc1` , GI50 read as 0.264 µM (active)

Notebook: `C=CCNC1=C2C[C@@H](C)C[C@@H](OC)[C@@H](OC(=O)CCCN)[C@H](C)/C=C(\C)[C@@H](OC(N)=O)[C@H](OC)/C=C\C=C(/C)C(=O)NC(=CC1=O)C2=O` , GI50 read as 13.5 µM (inactive)

Notebook: `CCCCCCCCCCCCCC/C(C(=O)O)=C(\C)C(=O)O` , GI50 read as > 100 µM (inactive)

====

Measured GI50, listed per entry.
# System: SF-268
# assay name: NCI tumour cell line growth inhibition, 48 h
The source made the active and inactive calls. Rule as the data show it: active = GI50 up to about 1.1 µM and inactive = higher.

Notebook: `Cc1cc(NS(=O)(=O)c2ccc(NC(NC(=O)OC(C)C)(C(F)(F)F)C(F)(F)F)cc2)nc(C)n1` , GI50 read as > 100 µM (inactive)

Notebook: `N#Cc1c(Cl)c(C=O)c(=O)n2c1[nH]c1ccccc12` , GI50 read as 38.6 µM (inactive)

Notebook: `c1cc(-c2sc(-c3ccncc3)c(-c3ccncc3)c2-c2ccncc2)ccn1` , GI50 read as 15.2 µM (inactive)

Notebook: `C[C@]12C=CC(=O)C=C1CC[C@H]1[C@@H]3C[C@@H](O)[C@](O)(C(=O)CO)[C@@]3(C)C[C@H](O)[C@@]12F` , GI50 read as > 100 µM (inactive)

====

# System: SR
# assay name: NCI tumour cell line growth inhibition, 48 h
Calls of active or inactive are those of the source. Cut-off read from the data, not from the text of the source: active = GI50 up to about 1.1 µM and inactive = higher.
Answer with one of the outcomes given here: active, inactive

# count of solved cases: 5
>>> class_assignment("C=C1C(=O)O[C@H]2/C=C(/C)C3=CC(=O)[C@@](C)(C[C@@H](OC(=O)/C(C)=C\\C)C12)O3 (stereo not given in full)")
"active"
>>> class_assignment("O=C(NC1CCN(Cc2ccccc2)CC1)c1cccc(I)c1")
"inactive"
>>> class_assignment("Oc1ccc(Cc2cc(Cc3ccc(O)cc3)cc(Cc3ccc(O)cc3)c2)cc1")
"inactive"
>>> class_assignment("NS(=O)(=O)c1nnc(NS(=O)(=O)c2ccc([N+](=O)[O-])cc2)s1")
"inactive"
>>> class_assignment("Nc1nc(O)c2ncn(C3C=CC(CO)O3)c2n1 (stereo not given)")
"inactive"

[Q] Which result was noted for this compound in the test: COC(=O)C1CC(C=[N+](C)C)=C(SC)N1C(=O)OCc1ccccc1 (stereo not given)
[A] inactive

[Q] Which result was noted for this compound in the test: `Cc1ccc([N+](=O)[O-])c2c(NCCNC(=O)c3cc(C(=O)NCCNc4ccnc5c(C)ccc([N+](=O)[O-])c45)n(C)n3)ccnc12`
[A] inactive

[Q] Which result was noted for this compound in the test: CN1NC(c2ccc(Cl)cc2)=C(C#N)C(=O)CC1c1ccccc1 (stereo not given)
[A] inactive

[Q] Which result was noted for this compound in the test: `COc1ccc(/C=C2\N=C(SC)N(CN3CCCCC3)C2=O)cc1`
[A] inactive

[Q] Which result was noted for this compound in the test: `CCCCc1c2c(nc3c1CC/C(=C\c1ccccc1)C3=O)CCCC2`
[A] inactive

====

Measured GI50, listed per entry.
# Tested on: MDA-MB-231
# assay name: NCI tumour cell line growth inhibition, 48 h
The source made the active and inactive calls. No stated cut-off is given here; in the data, active = GI50 up to about 1.1 µM and inactive = higher.

Notebook: O=C(CC(Cc1ccccc1)c1ccc(Oc2ccccc2)cc1)Nc1cccc(Cl)c1 (stereo not given) , GI50 read as 10.8 µM (inactive)

Notebook: `COc1ccc(Oc2nc3cc(C(F)(F)F)ccc3nc2C(C)C)cc1` , GI50 read as 24.7 µM (inactive)

Notebook: `S=c1sc2c(s1)SCc1cccc(n1)CSc1sc(=S)sc1SCc1cccc(n1)CS2` , GI50 read as > 100 µM (inactive)

====

Measured GI50, listed per entry.
# Test system: UACC-257
# assay name: NCI tumour cell line growth inhibition, 48 h
Active and inactive are the calls of the source. No stated cut-off is given here; in the data, active = GI50 up to about 1.1 µM and inactive = higher.

>>> observed_result("O=C(N/N=C/c1cccc(O)c1O)N/N=C/c1cccc(O)c1O")
"19.9 µM (inactive)"

Notebook: `Cc1csc(CP(=O)(OC(C)C)OC(C)C)n1` , GI50 read as > 100 µM (inactive)

Notebook: `COc1ccc(CNc2cc(OC)cc(OC)c2)cc1` , GI50 read as 64 µM (inactive)

Notebook: `CCN(CC)CCNC(=O)c1ccccc1NC(=O)C(=O)Nc1ccccc1C(=O)NCCN(CC)CC` , GI50 read as 18.6 µM (inactive)

Notebook: `CN(C)CCNC(=O)c1cnn(C)c1[N+](=O)[O-]` , GI50 read as 53 µM (inactive)

Notebook: `C/C(=N\O)c1ccc(OCc2cc(C(F)(F)F)cc(C(F)(F)F)c2)cc1` , GI50 read as 38.5 µM (inactive)

Notebook: CC(C)CC(NC(=O)c1cccc(O)c1O)C(=O)NCc1cc(CNC(=O)C(CC(C)C)NC(=O)c2cccc(O)c2O)cc(CNC(=O)C(CC(C)C)NC(=O)c2cccc(O)c2O)c1 (stereo not given) , GI50 read as 20.1 µM (inactive)

Notebook: `Brc1ccc2c(-c3nc(-c4c[nH]c5ccccc45)cs3)c[nH]c2c1` , GI50 read as 69.2 µM (inactive)

Notebook: `N#CCCN(c1ccc(C=O)cc1)S(=O)(=O)c1ccccc1` , GI50 read as > 100 µM (inactive)

Notebook: CC1OC1P(=O)(O)O (stereo not given) , GI50 read as > 100 µM (inactive)
